This collection of values is drawn from patent US20220194999A1.

Target of assay: T1, HLA-A*02:01 class I complex (conditional p*HLA*02:01, biotinylated heavy chain with beta2-microglobulin) (human, biotinylated heavy chain)
T1 construct: UV-labile peptide p* is cleaved and exchanged for the test peptide; also called HLA 2.1
Assay overview: UV peptide exchange, HLA class I ELISA, % of Pos peptide;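 also: Streptavidin-captured HLA complexes after exchange detected via HRP anti-human B2M antibody, absorbance read, colour scales with intact complex, normalized to exchange control peptide as 100%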
Please use True for Average % under 40% and False for everything else, ties included.

Binder	Group
LVVVGAAGV (also called M050) [KRAS.G12A mutant peptide LVVVGAAGV]	True
CYVYYYSYLL (also called M100) [PTEN.R173C mutant peptide CYVYYYSYLL]	True
GMAPPQLLV (also called M142) [TP53_H193L6 mimic peptide GMAPPQLLV]	True
RLIHRDLAV (also called M242) [ERBB2_V842I5 mimic peptide RLIHRDLAV]	False
KMYPVQLWL (also called M133) [TP53_C141Y8 mimic peptide KMYPVQLWL]	False
